Tested on: Escherichia coli TOP10;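 further: peptides expressed intracellularly from a pBAD plasmid library in pooled LB shake-flask culture, induced with 0.3% L-arabinose, DNA abundance read by NGS, three biological replicates, DESeq2 with apeglm shrinkage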
METHOD_DESCRIPTION: shrunken log2 fold change of peptide-encoding DNA abundance (4.5 h post-induction vs induction); higher = less antimicrobial activity (less host growth inhibition)
CONDITION_INFO: time post-induction: 4.5 h; library: site-saturation at positions 5, 18, 19, 20
The class of a record is decided solely by its measured shrunken log2 fold change; consult low = under -0.2, mid = from -0.2 up to 0.1, high = 0.1 and over

>>> assigned_label("RRIRRRPPRLPRPRPRPIFPPRP")
"high"
>>> assigned_label("RRIRFRPPRLPRPRPRPFSGPRP")
"mid"
>>> assigned_label("RRIRPRPPRLPRPRPRPPCNPRP")
"mid"
>>> assigned_label("RRIRVRPPRLPRPRPRPVPTPRP")
"high"
>>> assigned_label("RRIRLRPPRLPRPRPRPMHGPRP")
"mid"
>>> assigned_label("RRIRMRPPRLPRPRPRPHRNPRP")
"mid"
>>> assigned_label("RRIRSRPPRLPRPRPRPLANPRP")
"high"
>>> assigned_label("RRIRVRPPRLPRPRPRPSDYPRP")
"low"
>>> assigned_label("RRIRCRPPRLPRPRPRPQGSPRP")
"mid"
>>> assigned_label("RRIRGRPPRLPRPRPRPSHGPRP")
"high"
>>> assigned_label("RRIRCRPPRLPRPRPRPENMPRP")
"low"
>>> assigned_label("RRIRARPPRLPRPRPRPCDKPRP")
"mid"

Data origin: the supplement of paper PMC9112550
